Tested on: VRE 1008
Assay type: cell-based, Enterococcus faecalis
Bridge positions count the residues as written; N and C are the ends. Square brackets hold non-standard residues; d marks the D form. Peptide text beside a SMILES is read from it. dNMeF = CN[C@H](Cc1ccccc1)C(=O)O

compound: CC[C@@H](C)[C@@H](NC(=O)[C@@H](CCC(N)=O)NC(=O)[C@H](CCCNC(=N)N)NC(=O)[C@@H](NC(=O)[C@@H](Cc1ccccc1)NC)[C@@H](C)CC)C(=O)N[C@H](C(=O)N[C@@H](CO)C(=O)N[C@H]1C(=O)N[C@@H](C)C(=O)N[C@@H](CC(C)C)C(=O)N[C@@H]([C@@H](C)CC)C(=O)O[C@H]1C)[C@@H](C)CC [Compound 25, Arg3-Leu10-teixobactin] (H-[dNMeF]IR[dQ][dI]IS[dT]ALI; ester 8-C)
MIC: 0.125 µg/mL
//
compound: CC[C@@H](C)[C@@H](NC(=O)[C@@H](CCCNC(=N)N)NC(=O)[C@H](CCCNC(=N)N)NC(=O)[C@@H](NC(=O)[C@@H](Cc1ccccc1)NC)[C@@H](C)CC)C(=O)N[C@H](C(=O)N[C@@H](CO)C(=O)N[C@H]1C(=O)N[C@@H](C)C(=O)N[C@@H](CC(C)C)C(=O)N[C@@H]([C@@H](C)CC)C(=O)O[C@H]1C)[C@@H](C)CC [Compound 28, Arg3-D-Arg4-Leu10-teixobactin] (H-[dNMeF]IR[dR][dI]IS[dT]ALI; ester 8-C)
MIC: 0.5 µg/mL
//
compound: CC[C@@H](C)[C@@H](NC(=O)[C@@H](CCCNC(=N)N)NC(=O)[C@H](CO)NC(=O)[C@@H](NC(=O)[C@@H](Cc1ccccc1)NC)[C@@H](C)CC)C(=O)N[C@H](C(=O)N[C@@H](CO)C(=O)N[C@H]1C(=O)N[C@@H](C)C(=O)N[C@@H](CC(C)C)C(=O)N[C@@H]([C@@H](C)CC)C(=O)O[C@H]1C)[C@@H](C)CC [Compound 26, D-Arg4-Leu10-teixobactin]
MIC: 0.5 µg/mL
//
compound: CC[C@@H](C)[C@@H](NC(=O)[C@@H](CCCNC(=N)N)NC(=O)[C@H](CCCNC(=N)N)NC(=O)[C@@H](NC(=O)[C@@H](Cc1ccccc1)NC)[C@@H](C)CC)C(=O)N[C@H](C(=O)N[C@@H](CO)C(=O)N[C@H]1C(=O)N[C@@H](CCCNC(=N)N)C(=O)N[C@@H](CC(C)C)C(=O)N[C@@H]([C@@H](C)CC)C(=O)O[C@H]1C)[C@@H](C)CC [Compound 31, Arg3-D-Arg4-Arg9-Leu10-teixobactin] (H-[dNMeF]IR[dR][dI]IS[dT]RLI; ester 8-C)
MIC: 8 µg/mL
//
compound: CC[C@@H](C)[C@@H](NC(=O)[C@@H](CCCNC(=N)N)NC(=O)[C@H](CO)NC(=O)[C@@H](NC(=O)[C@@H](Cc1ccccc1)NC)[C@@H](C)CC)C(=O)N[C@H](C(=O)N[C@@H](CO)C(=O)N[C@H]1C(=O)N[C@@H](CCCNC(=N)N)C(=O)N[C@@H](CC(C)C)C(=O)N[C@@H]([C@@H](C)CC)C(=O)O[C@H]1C)[C@@H](C)CC [Compound 30, D-Arg4-Arg9-Leu10-teixobactin] (H-[dNMeF]IS[dR][dI]IS[dT]RLI; ester 8-C)
MIC: 1 µg/mL

----------
Test system: Staphylococcus saprophyticus ATCC 49453
Assay type: cell-based
experimental-parameters: ATCC 49453
Bridge positions count the residues as written; N and C are the ends. Square brackets hold non-standard residues; d marks the D form. Peptide text beside a SMILES is read from it. ξ: configuration not given here. dNMeF = CN[C@H](Cc1ccccc1)C(=O)O; Ile(3ξ) = CCC(C)[C@H](N)C(=O)O
Overview of recorded MIC for various molecules

molecule: CCC(C)[C@@H]1NC(=O)[C@H](C)NC(=O)[C@H](NC(=O)[C@H](CO)NC(=O)[C@@H](NC(=O)[C@H](NC(=O)[C@@H](CCCNC(=N)N)NC(=O)[C@H](CO)NC(=O)[C@@H](NC(=O)[C@@H](Cc2ccccc2)NC)[C@@H](C)CC)[C@H](C)CC)[C@@H](C)CC)[C@H](C)OC(=O)[C@H]([C@@H](C)CC)NC1=O (some centres unmarked)
MIC: <0.0625 µg/mL
//
molecule: CCC(C)[C@@H]1NC(=O)[C@H](C)NC(=O)[C@H](NC(=O)[C@H](CO)NC(=O)[C@@H](NC(=O)[C@H](NC(=O)[C@@H](CCC(N)=O)NC(=O)[C@H](CCCNC(=N)N)NC(=O)[C@@H](NC(=O)[C@@H](Cc2ccccc2)NC)[C@@H](C)CC)[C@H](C)CC)[C@@H](C)CC)[C@H](C)OC(=O)[C@H]([C@@H](C)CC)NC1=O (some centres unmarked) [Compound 32, Arg3-Ile10-teixobactin] (H-[dNMeF]IR[dQ][dI]IS[dT]A[Ile(3ξ)]I; ester 8-C)
MIC: <0.0625 µg/mL

----------
Each record here notes measured MIC.
System: MRSA DR 42412 (sputum)
test: microbe, parasite or virus in culture
experimental-parameters: DR 42412 (sputum)
Bridge positions count the residues as written; N and C are the ends. Square brackets hold non-standard residues; d marks the D form. Peptide text beside a SMILES is read from it. ξ: configuration not given here. dNMeF = CN[C@H](Cc1ccccc1)C(=O)O; Ile(3ξ) = CCC(C)[C@H](N)C(=O)O
measured-metric: MIC

molecule: CCCCCCCCCC(=O)N[C@@H](Cc1c[nH]c2ccccc12)C(=O)N[C@H](CC(N)=O)C(=O)N[C@@H](CC(=O)O)C(=O)N[C@@H]1C(=O)NCC(=O)N[C@@H](CCCN)C(=O)N[C@@H](CC(=O)O)C(=O)N[C@H](C)C(=O)N[C@@H](CC(=O)O)C(=O)NCC(=O)N[C@H](CO)C(=O)N[C@@H]([C@H](C)CC(=O)O)C(=O)N[C@@H](CC(=O)c2ccccc2N)C(=O)O[C@@H]1C [Daptomycin, reference compound]
experimental-target: MRSA DR 42412 (sputum)
measured-metric: MIC
reading: <0.0625 µg/mL
--
molecule: CCC(C)[C@@H]1NC(=O)[C@H](C)NC(=O)[C@H](NC(=O)[C@H](CO)NC(=O)[C@@H](NC(=O)[C@H](NC(=O)[C@@H](CCC(N)=O)NC(=O)[C@H](CCCNC(=N)N)NC(=O)[C@@H](NC(=O)[C@@H](Cc2ccccc2)NC)[C@@H](C)CC)[C@H](C)CC)[C@@H](C)CC)[C@H](C)OC(=O)[C@H]([C@@H](C)CC)NC1=O (some centres unmarked) [Compound 32, Arg3-Ile10-teixobactin] (H-[dNMeF]IR[dQ][dI]IS[dT]A[Ile(3ξ)]I; ester 8-C)
experimental-target: MRSA DR 42412 (sputum)
measured-metric: MIC
reading: 0.125 µg/mL
--
molecule: CC[C@@H](C)[C@@H](NC(=O)[C@@H](CCC(N)=O)NC(=O)[C@H](CCCNC(=N)N)NC(=O)[C@@H](NC(=O)[C@@H](Cc1ccccc1)NC)[C@@H](C)CC)C(=O)N[C@H](C(=O)N[C@@H](CO)C(=O)N[C@H]1C(=O)N[C@@H](C)C(=O)N[C@@H](CC(C)C)C(=O)N[C@@H]([C@@H](C)CC)C(=O)O[C@H]1C)[C@@H](C)CC [Compound 25, Arg3-Leu10-teixobactin] (H-[dNMeF]IR[dQ][dI]IS[dT]ALI; ester 8-C)
experimental-target: MRSA DR 42412 (sputum)
measured-metric: MIC
reading: <0.0625 µg/mL
--
molecule: CC[C@@H](C)[C@@H](NC(=O)[C@@H](CCC(N)=O)NC(=O)[C@H](CO)NC(=O)[C@@H](NC(=O)[C@@H](Cc1ccccc1)NC)[C@@H](C)CC)C(=O)N[C@H](C(=O)N[C@@H](CO)C(=O)N[C@H]1C(=O)N[C@@H](C)C(=O)N[C@@H](C)C(=O)N[C@@H]([C@@H](C)CC)C(=O)O[C@H]1C)[C@@H](C)CC
experimental-target: MRSA DR 42412 (sputum)
measured-metric: MIC
reading: 1 µg/mL
--
molecule: CC[C@@H](C)[C@@H](NC(=O)[C@@H](CCC(N)=O)NC(=O)[C@H](CO)NC(=O)[C@@H](NC(=O)[C@@H](Cc1ccccc1)NC)[C@@H](C)CC)C(=O)N[C@H](C(=O)N[C@@H](CO)C(=O)N[C@H]1C(=O)N[C@@H](CCCNC(=N)N)C(=O)N[C@@H](CC(C)C)C(=O)N[C@@H]([C@@H](C)CC)C(=O)O[C@H]1C)[C@@H](C)CC [Compound 27, Arg9-Leu10-teixobactin] (H-[dNMeF]IS[dQ][dI]IS[dT]RLI; ester 8-C)
experimental-target: MRSA DR 42412 (sputum)
measured-metric: MIC
reading: <0.0625 µg/mL
